# target or system: AKT3 (human)
pKi: −log10 of the molar value.
measured metric: pKi

Send back AKT3 (human) pKi of O=C1c2ccccc2-c2n[nH]c3cccc1c23 only.
< 5.00

====

# target or system: EPHA2 (human)
measured metric: Ki

Indicate the recorded Ki value for this compound: O=C1c2ccccc2-c2n[nH]c3cccc1c23
> 3.16 µM

====

# target or system: FLT4 (human) (UniProt P35916)
# Sequence (P35916 whole entry, looked up): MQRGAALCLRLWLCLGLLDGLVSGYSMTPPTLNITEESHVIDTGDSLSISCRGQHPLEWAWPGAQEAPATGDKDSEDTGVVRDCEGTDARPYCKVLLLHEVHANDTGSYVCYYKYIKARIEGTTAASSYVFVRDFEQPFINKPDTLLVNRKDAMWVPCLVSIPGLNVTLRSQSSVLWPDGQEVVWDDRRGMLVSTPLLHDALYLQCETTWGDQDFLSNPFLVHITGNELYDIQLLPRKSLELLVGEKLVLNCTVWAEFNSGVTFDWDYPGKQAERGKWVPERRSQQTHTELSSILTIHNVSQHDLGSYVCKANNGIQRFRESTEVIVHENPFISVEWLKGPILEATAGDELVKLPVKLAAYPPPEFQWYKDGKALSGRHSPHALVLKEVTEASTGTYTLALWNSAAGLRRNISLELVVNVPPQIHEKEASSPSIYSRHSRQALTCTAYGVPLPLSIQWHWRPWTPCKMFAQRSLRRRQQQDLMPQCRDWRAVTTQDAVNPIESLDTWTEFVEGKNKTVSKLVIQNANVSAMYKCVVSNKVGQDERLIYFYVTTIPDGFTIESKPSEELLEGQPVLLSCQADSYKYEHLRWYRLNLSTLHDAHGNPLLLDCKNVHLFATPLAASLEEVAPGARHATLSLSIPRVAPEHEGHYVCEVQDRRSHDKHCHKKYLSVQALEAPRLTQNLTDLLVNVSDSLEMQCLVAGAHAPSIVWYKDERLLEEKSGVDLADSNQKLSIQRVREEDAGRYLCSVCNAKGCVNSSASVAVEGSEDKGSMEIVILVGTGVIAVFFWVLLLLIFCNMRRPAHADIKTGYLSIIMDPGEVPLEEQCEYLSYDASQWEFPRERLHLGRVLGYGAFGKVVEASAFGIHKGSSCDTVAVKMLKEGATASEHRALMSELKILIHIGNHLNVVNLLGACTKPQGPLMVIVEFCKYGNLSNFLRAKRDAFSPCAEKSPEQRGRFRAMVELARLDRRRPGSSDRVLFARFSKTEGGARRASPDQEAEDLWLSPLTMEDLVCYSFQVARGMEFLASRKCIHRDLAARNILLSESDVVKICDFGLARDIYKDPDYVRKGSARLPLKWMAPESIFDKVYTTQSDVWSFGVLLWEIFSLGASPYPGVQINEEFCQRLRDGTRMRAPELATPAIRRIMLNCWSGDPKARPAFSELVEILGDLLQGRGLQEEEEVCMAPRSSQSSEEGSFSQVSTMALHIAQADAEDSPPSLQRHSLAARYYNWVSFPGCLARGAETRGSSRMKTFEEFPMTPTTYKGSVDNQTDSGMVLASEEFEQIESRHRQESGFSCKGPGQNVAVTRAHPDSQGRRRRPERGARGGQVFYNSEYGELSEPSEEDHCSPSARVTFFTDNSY
# experiment notes: HTRF
measured metric: Ki (nM)
Please respond with the number in nM and leave the unit unwritten.

Indicate the recorded Ki value for this compound: O=C1c2ccccc2-c2n[nH]c3cccc1c23
15.8

====

# target or system: SGK1 (human) (UniProt O00141)
# Sequence (O00141 whole entry, looked up): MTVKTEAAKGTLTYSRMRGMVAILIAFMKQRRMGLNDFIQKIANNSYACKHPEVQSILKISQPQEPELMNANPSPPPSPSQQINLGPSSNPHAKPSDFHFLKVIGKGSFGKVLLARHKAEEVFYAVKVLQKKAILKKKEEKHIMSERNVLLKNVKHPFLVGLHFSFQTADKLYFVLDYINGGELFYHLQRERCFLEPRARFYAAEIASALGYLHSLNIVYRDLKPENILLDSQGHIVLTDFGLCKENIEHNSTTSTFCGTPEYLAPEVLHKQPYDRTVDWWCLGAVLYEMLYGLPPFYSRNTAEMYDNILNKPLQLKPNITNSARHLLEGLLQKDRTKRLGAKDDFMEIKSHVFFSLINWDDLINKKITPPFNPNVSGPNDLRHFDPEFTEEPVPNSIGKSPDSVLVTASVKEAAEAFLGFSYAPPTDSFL
pKi: −log10 of the molar value.
measured metric: pKi

Illustrative cases are given below, each with its answer.
[[record]]
compound = "CCN(CC)C(=O)Nc1ccc2nc(-c3ccco3)c(-c3ccco3)nc2c1"
measured_metric = "pKi"
assay_value = "< 5.00"

[[record]]
compound = "O=c1[nH]cnc2c1oc1ccc(Cl)cc12"
measured_metric = "pKi"
assay_value = "< 5.00"

[[record]]
compound = "Cc1ccc(NC(=O)Nc2ccc(-c3csc4c(-c5cnn(C(C)C(=O)N(C)C)c5)cnc(N)c34)cc2)cc1 (stereo unspecified)"
measured_metric = "pKi"
assay_value = "< 5.00"

[[record]]
compound = "CCOc1nc(C(=O)NCc2ccccc2S(N)(=O)=O)cc(N)c1Cl"
measured_metric = "pKi"
assay_value = "< 5.00"

[[record]]
compound = "COc1ccc2c(c1)/C(=C/c1cnc[nH]1)C(O)=N2"
measured_metric = "pKi"
assay_value = 6.00

[[record]]
compound = "CSc1cnc2c(ccc3cnccc32)c1O"
measured_metric = "pKi"
assay_value = 6.80

[[record]]
compound = "Nc1nccc2scc(-c3ccc(NC(=O)Nc4cccc(Br)c4)cc3)c12"
measured_metric = "pKi"
assay_value = "< 5.00"

[[record]]
compound = "CCCC(=O)Nc1n[nH]c2nnc(-c3cccc(F)c3F)cc12"
measured_metric = "pKi"
assay_value = "< 5.00"

[[record]]
compound = "COc1ccc2c(NC(=O)Nc3cccc(Br)n3)ccnc2c1"
measured_metric = "pKi"
assay_value = "< 5.00"

[[record]]
compound = "O=c1ncn2nc(Sc3ccc(F)cc3F)ccc2c1-c1c(Cl)cccc1Cl"
measured_metric = "pKi"
assay_value = "< 5.10"


// next item, pKi requested
Send back SGK1 (human) (UniProt O00141) pKi of O=C(c1cccc(-c2cnc3[nH]ccc3c2)c1)N1CCOCC1 only.
< 5.00
